Data credit: paper PMC6318274

- Tested on: HIV-1 Env-pseudoviruses (208-strain panel)
- Measurement protocol: microbe, parasite or virus in culture
- Type: cell-based
- Experimental parameters: Human immunodeficiency virus 1, TZM-bl, Q769.h5, clade A; read-out: IC50
Metric: IC50 (nM)
Quick reminder: number only, in nM, skip the unit.

Exam item: Specify IC50 for COc1cnc(-c2csc(C(=O)NCCO)n2)c2[nH]cc(C(=O)C(=O)N3CCC(=C(C#N)c4ccccc4)CC3)c12 [BMS-818251] , system HIV-1 Env-pseudoviruses (208-strain panel).
Marked response: 2

====

- System tested: BG505 DS-SOSIP.664 Env trimer (Human immunodeficiency virus 1, UniProt Q2N0S5, A430C/A498C/I200C/I556P/T330N/T602C, form not given)
- Experimental parameters: read-out: Kd (affinity); ITC, 37 °C
Metric: Kd (nM)
Quick reminder: number only, in nM, skip the unit.

Exam item: Quote Kd reported for COc1cnc(-c2csc(C(=O)NCCO)n2)c2[nH]cc(C(=O)C(=O)N3CCC(=C(C#N)c4ccccc4)CC3)c12 please.
Marked response: 47
